Reference source for all entries: a melting point compilation (Tetko et al.; mined from patent text by program, amines drawn as free bases though some values may be those of a salt)

Below: a set of entries, each annotated with reported melting point.
Number only, in °C; omit the unit.

Task item: melting point for O=C(Cc1ccccc1O)N1C[C@@H]2SCCC(c3ccccc3)(c3ccccc3)[C@@H]2C1 (racemic) ?
Reply: 248

Task item: Would you mind doing N#CC(=NO)c1ccc(Cl)cc1Cl as well?
Reply: 151

Task item: How about this compound: CCCCCC(=O)OCC(=O)C1C(C)CC2C3=C(C(=O)CC21C)C1(C)C=CC(=O)C=C1C(F)C3 (stereo not given)
Reply: 159

Task item: Quick one: Cc1ccc(C2COc3c(ccc(O)c3O)C2)cc1 (stereo not given)
Reply: 164

* * *

Measured melting point accompanies every entry in the list below.

Some solved entries appear below for comparison.
- compoundString: "Cc1ccccc1-c1c(O)c2ccccc2[nH]c1=O"
  melting point: "> 300 °C"
- compoundString: "NS(=O)(=O)c1ccc(-c2cnn(CC(F)(F)F)c(=O)c2-c2ccc(Cl)cc2)cc1"
  melting point: "154 to 156 °C"
- compoundString: "CCCCc1nc(SC)c(C(C)=O)n1Cc1ccc(-c2ccccc2S(=O)(=O)NC(=O)NCCC)cc1"
  melting point: "176 to 177 °C"
- compoundString: "O=C(Sc1ccc(O)cc1)c1ccc(CSc2ccc(O)cc2)cc1"
  melting point: "202 to 209 °C"

Task item: For the compound Cc1cc(I)cc(C(=O)O)c1N , what melting point is on record?
Reply: 214 °C

* * *

Entries and their measured melting point follow.
Give just the numeric value; °C need not be written.

In the examples that follow, each entry is paired with its recorded melting point.
- compound: "CN1CC2c3cccn3Cc3ccc(Cl)cc3N2C(=O)C1=O (stereo unspecified)"
  melting point, °C: 203
- compound: "O=[N+]([O-])C(CSc1cccc(Cl)c1)=C1NCCN1Cc1ccc(Cl)nc1"
  melting point, °C: 143
- compound: "O=C1c2ccccc2C2C(c3ccccc31)C2(F)F (stereo unspecified)"
  melting point, °C: 150

Kindly consider the entry below.
Task item: Which melting point is listed for O=S(=O)(Cc1cccc2ccccc12)c1ccccc1 ?
Reply: 89

* * *

// reported melting point for each item listed

The examples below pair each entry with its known result.
- compound: "COc1ccc2cnoc2c1Cl"
  dataValue: "115 to 118 °C"
- compound: "CS(=O)(=O)c1cc(Cl)cc(-c2cccnc2-c2cccnc2)c1"
  dataValue: "135 °C"
- compound: "Cc1cc(-c2ccc(C(F)(F)F)cc2)nc(-c2cccc(-c3ccc(S(N)(=O)=O)s3)c2)n1"
  dataValue: "225 °C"
- compound: "CCCCOC(=O)CN(Cc1ccccc1OC)S(=O)(=O)c1ccc2c(Cl)cnc(Cl)c2c1"
  dataValue: "106 to 108 °C"
- compound: "CCC(=O)NCCC1=C(Cc2ccccc2)Cc2ccc(OC)cc21"
  dataValue: "149 to 151 °C"

Task item: Could you tell me which melting point is on file for CC1c2ccccc2-c2[nH]c3ccccc3c21 (centres undefined) ?
Reply: 153 to 155 °C

Task item: Next record, please: O=C1NC(=O)C(Cc2ccc(C(=O)COc3ccccc3)cc2)S1 (centres undefined)
Reply: 170 to 174 °C

Task item: Now give it for Cc1ccc2c(c1)N(CC(=O)c1ccccc1C)C(=O)C(NC(=O)Nc1cccc(C(=O)O)c1)CN2C(=O)c1ccco1 (centres undefined) too.
Reply: 219 to 221 °C

Task item: Check COc1ccc(CCNC(=O)Nc2ccccc2CCc2cc(C(C)(C)C)c(O)c(C(C)(C)C)c2)cc1OC too.
Reply: 158 to 160 °C

Task item: What would you report for O=C(Nc1cccc(C(F)(F)F)c1)N1CCCCc2cc(Oc3cc(Cl)ncn3)ccc21 ?
Reply: 120 °C

Task item: Then this compound: c1ccc(-c2nnc(-c3ccc(CN4CCCCCC4)s3)o2)cc1
Reply: 95 to 97 °C
